Hello, the source for this data is patent US9284277B2, in case you need it.

Molecular target: human 5HT2c receptor (INI isoform) (Homo sapiens, UniProt P28335)
Sequence (P28335 33-458): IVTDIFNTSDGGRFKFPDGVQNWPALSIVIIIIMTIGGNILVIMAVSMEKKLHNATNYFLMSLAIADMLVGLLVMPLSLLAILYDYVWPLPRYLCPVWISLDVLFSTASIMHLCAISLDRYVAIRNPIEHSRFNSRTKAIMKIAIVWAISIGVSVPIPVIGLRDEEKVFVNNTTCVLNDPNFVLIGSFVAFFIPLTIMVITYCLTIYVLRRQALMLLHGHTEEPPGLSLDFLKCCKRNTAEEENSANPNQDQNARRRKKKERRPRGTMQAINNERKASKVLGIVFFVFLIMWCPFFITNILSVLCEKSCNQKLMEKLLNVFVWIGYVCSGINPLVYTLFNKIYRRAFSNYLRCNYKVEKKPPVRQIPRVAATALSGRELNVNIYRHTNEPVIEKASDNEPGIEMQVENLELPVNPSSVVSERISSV
Assay: Phosphotidyl Inositol Turnover Assay (IP-One Tb kit), agonist potency
Type: cell-based
Settings: 5-HT2c PI turnover potency of the more active isomer (where applicable); HEK 293 EBNA cells expressing INI isoform of human 5HT2c receptor; read-out: Potency at 5HT2c (INI isoform)
pEC50: −log10 of the molar value.
For each of the compounds below, state its pEC50.

Assign pEC50 to the following record: COc1ccc(C2c3c(ccc4c3CCNCC4)CC2(F)F)cc1 (stereo not drawn) [Example 27]
> 7.00

Assign pEC50 to the following record: c1cc2c(c3c1CCNCC3)C(C1CC1)CC2 (stereo not drawn) [Example 4]
> 8.00

Assign pEC50 to the following record: FC(F)(F)c1cccc(C2c3c(ccc4c3CCNCC4)CC2(F)F)c1 (stereo not drawn) [Example 18]
> 8.00
